target: ENPP1 (hENPP1-ECD-His) (Homo sapiens (Human), UniProt P22413)
Sequence (P22413 98-925): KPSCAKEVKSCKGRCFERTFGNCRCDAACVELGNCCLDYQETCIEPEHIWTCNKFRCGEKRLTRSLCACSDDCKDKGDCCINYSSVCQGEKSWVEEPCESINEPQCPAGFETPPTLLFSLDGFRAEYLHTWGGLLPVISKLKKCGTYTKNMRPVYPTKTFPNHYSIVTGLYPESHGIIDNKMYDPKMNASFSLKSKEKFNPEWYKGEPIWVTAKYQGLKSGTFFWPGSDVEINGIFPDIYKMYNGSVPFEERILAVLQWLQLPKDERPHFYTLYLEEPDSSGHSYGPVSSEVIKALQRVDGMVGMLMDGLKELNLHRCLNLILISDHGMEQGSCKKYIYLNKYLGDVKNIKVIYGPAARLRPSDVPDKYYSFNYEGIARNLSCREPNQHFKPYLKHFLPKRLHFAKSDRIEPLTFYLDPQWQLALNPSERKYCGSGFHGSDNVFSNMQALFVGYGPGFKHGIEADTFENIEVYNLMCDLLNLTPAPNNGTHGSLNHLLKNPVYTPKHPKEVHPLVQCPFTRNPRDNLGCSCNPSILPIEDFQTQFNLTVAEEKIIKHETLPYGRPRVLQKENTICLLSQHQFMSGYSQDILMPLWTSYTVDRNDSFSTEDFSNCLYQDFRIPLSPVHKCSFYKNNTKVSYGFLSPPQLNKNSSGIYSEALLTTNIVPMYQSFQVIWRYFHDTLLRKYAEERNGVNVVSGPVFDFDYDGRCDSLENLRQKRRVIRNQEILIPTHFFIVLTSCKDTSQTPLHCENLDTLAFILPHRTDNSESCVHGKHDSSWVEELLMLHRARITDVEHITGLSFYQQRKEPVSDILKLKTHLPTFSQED
quantity.kind: IC50 (nM)

Consider the worked cases shown below.
COc1ccc2c(Nc3c(F)cc(CC(=O)NO)cc3F)ccnc2n1    1.8
COc1ccc2c(Oc3ccc(C(N)C(=O)NO)cc3)ccnc2n1 (stereo not shown)    2.8

[P] COc1ccc2c(Oc3ccc(C4(C(=O)NO)CC5CCC(C4)O5)cc3)ccnc2n1 (stereo not shown)
[Q] COc1ccc2c(Oc3ccc(C(C)(C)C(=O)NO)cc3)cc(C)nc2n1
[ask] Which shows the larger IC50 value: P or Q ? The response must carry the label of the picked entry.
[reply] P

###

target: ENPP1 (hENPP1-ECD-His) (Homo sapiens (Human), UniProt P22413)
pIC50: −log10 of the molar value.
quantity.kind: pIC50

Use these answered entries as a reference point.
COc1ccc2c(Nc3cc(F)c(C(C)C(=O)NO)cc3F)ccnc2n1 (centres unmarked)    8.35
COc1ccc2c(Nc3ccc(C4(C(=O)NO)CCOCC4)cc3)ccnc2c1    8.47
COc1ccc2c(Nc3ccc(C4(C(=O)NO)CCOCC4)c(F)c3)ccnc2n1    8.52
COc1cc2nccc(Nc3ccc(CC(=O)NO)cc3)c2cc1OC [Example A-1, reference compound]    7.05
COc1ccc2c(Oc3ccc(C4(C(=O)NO)CCN(Cc5ccccc5)CC4)cc3)ccnc2n1    8.80
COc1cc2nccc(Nc3ccc(CC(=O)NO)cc3F)c2cn1    8.41
O=C(Cc1ccc(Nc2ncnc3c2cnn3C2CC2)cc1)NO    6.42

[P] O=C(Cc1ccc(Nc2ncnc3c2cnn3CC(F)(F)F)cc1)NO
[Q] COc1ccc2c(Oc3ccc(C4(C(=O)NO)CCOCC4)c(Cl)c3)ccnc2n1
[R] COc1ccc2c(Oc3ccc(C(C)(C(=O)NO)C4CCOCC4)cc3)ccnc2n1 (centres unmarked)
[S] COc1cc2nccc(Oc3ccc(C4(C(=O)NO)CCCC4)cc3)c2cn1
[ask] List items by pIC50 in falling order. Please list each label once, in the requested order.
[reply] S, R, Q, P
(S: 8.92, R: 8.51, Q: 8.15, P: 6.29)

###

Entries with their measured pIC50, system ENPP1 (hENPP1-ECD-His) (Homo sapiens (Human), UniProt P22413):
pIC50: −log10 of the molar value.
quantity.kind: pIC50

Field: example entries. Status: answers known.
COc1cccc2c(Oc3ccc(CC(=O)NO)cc3)c(C#N)cnc12    6.82
Cn1ncc2c(Oc3ccc(C(C)(C)C(=O)NO)cc3)ccnc21    8.52

[A] COc1ccc2c(Oc3cccc(C(=O)NO)c3)ccnc2n1
[B] COc1ccc2c(NC3CCN(C(C)(C)C(=O)NO)CC3)ccnc2n1
[C] COc1ccc2c(Oc3ccc(C4(C(=O)NO)CCOCC4)cc3Cl)ccnc2n1
[ask] # rank by pIC50, ascending (min first) Output spec: labels arranged per the requested ranking.
[reply] A, C, B
(A: 6.67, C: 8.22, B: 8.68)
